Tested on: A498 renal
ASSAY REMARKS: NCI-60 one-dose screen, 48 h
CONDITION CONTEXT: 10 µM unless noted
The panel holds about 83,000 compounds, 20% with a hit somewhere; the sample as a whole holds those more often. The source made the active and inactive calls. Rule for the calls: active = growth percent below 10; inactive = the rest.
Please state which outcome applies, choosing from 1.0 = active, 0.0 = inactive

// below: answered compounds
| MOL | CATEGORY LABEL |
| --- | --- |
| C[C@]12CC[C@@H]3c4cc(O)c(O)cc4CC[C@H]3[C@@H]1CC[C@@H]2O | 0.0 |
| c1ccn2nnnc2c1 | 0.0 |
| CCC(=O)Oc1cc(/C=C/C(=O)O[C@H]2C[C@H]3CN4CCc5c([nH]c6cc(OC)ccc56)[C@@H]4C[C@@H]3[C@@H](C(=O)OC)[C@@H]2OC)ccc1OC | 1.0 |
| CC(=O)Nc1nc(C(=O)N2N=C(C)/C(=C/c3ccc(Cl)cc3)C2=O)cs1 | 0.0 |

We now examine a further compound.
Just curious, what result did C=C1C(=O)O[C@H]2[C@H]1CC/C(Cn1cc(-c3ccc(N)cc3)nn1)=C\CC[C@@]1(C)O[C@@H]21 get here?
0.0

###

Tested on: SNB-75 CNS
ASSAY REMARKS: NCI-60 one-dose screen, 48 h (100 = growth as untreated, 0 = no growth, -100 = all killed)
CONDITION CONTEXT: 10 µM unless noted
Compounds without any hit were thinned out: in the full panel of roughly 83,000, 20% have a hit.
PROPERTY MEASURED: growth (%)
The figure you give is taken to be in %; do not add the unit.

Some solved cases for reference:
| COMPOUND | STUDY SYSTEM | READOUT UNITS | growth |
| --- | --- | --- | --- |
| O=C1CCC(=O)N1Cc1ccccc1 | SNB-75 CNS | % | 80.4 |
| C/C(=C\c1csc(C)n1)[C@@H]1C[C@@H]2O[C@]2(C)CCC[C@H](C)[C@H](O)[C@@H](C)C(=O)C(C)(C)[C@@H](O)CC(=O)N1 | SNB-75 CNS | % | -19.4 |
| CC(Cc1nnc(SCC(=O)Nc2ccc(I)cc2)n1N)c1ccccc1 (stereo not given) | SNB-75 CNS | % | 260 |
| CCCCC[C@@H]1Cc2cc(O)c(C(=O)O)c3c2[C@H](C[C@@]2(CCCO2)O3)O1 | SNB-75 CNS | % | 98.1 |

Shift focus to the following entry.
Record lookup: for SNB-75 CNS, what growth belongs to Cc1ccc(Oc2nc3ccccc3cc2-c2nnc(Cn3c(COc4ccccc4)nc4ccccc43)o2)cc1 ?
54.9

###

Tested on: SNB-19 CNS
ASSAY REMARKS: NCI-60 one-dose screen, 48 h (100 = growth as untreated, 0 = no growth, -100 = all killed)
CONDITION CONTEXT: 10 µM unless noted
This is part of a sample that, as a whole, favours compounds with a hit. Of some 83,000 tested, about 20% had one in any assay.
growth listing for selected compounds.
The figure you give is taken to be in %; do not add the unit.

Some solved cases for reference:
| COMPOUND | growth [%] |
| --- | --- |
| Clc1ccc(/C=C/c2nc(N3CCOCC3)c3nc(Cl)c(Cl)cc3n2)cc1 | 101 |
| Cc1cc(C)c(NC(=O)c2sc3nc4c(cc3c2N)CN(Cc2ccccc2)CC4)c(C)c1 | 42.9 |

Quick one: growth for COC(=O)CCCCCCN=Cc1c(O)c(O)c(C(C)C)c2cc(C)c(-c3c(C)cc4c(C(C)C)c(O)c(O)c(C=NCCCCCCC(=O)OC)c4c3O)c(O)c12 ?
17.6

Another compound: c1cncc(CNc2ccccc2-c2nnc(Nc3ccc4c(c3)OCCO4)o2)c1
38.1

Another compound: Nc1nc(N)c2nc(CNc3ccc(C(=O)CC(CCC(=O)O)C(=O)O)cc3)cnc2n1 (stereo not given)
42.9

Another compound: COc1ccc(C2NC3=C(CCCC3)C(C#N)(C#N)C2(C#N)C#N)cc1 (stereo not given)
88.5

Another compound: COc1cc(Br)c(OC)cc1Br
108

Another compound: COc1ccc(-c2nc3sccn3c2-c2ccnc(NCCCNS(=O)(=O)c3ccc(F)cc3)n2)cc1
42.6

Another compound: Cc1cc(C(=O)O)c(N)c(C)n1
110

Another compound: C=C1C(=O)O[C@H]2[C@H](O)[C@@H](C)CCC/C(C)=C/CC[C@@]3(C)O[C@@H]3C[C@@H]12
88

###

growth listing for selected compounds.
Tested on: EKVX NSCLC
ASSAY REMARKS: NCI-60 one-dose screen, 48 h (100 = growth as untreated, 0 = no growth, -100 = all killed)
CONDITION CONTEXT: 10 µM unless noted
This is part of a sample that, as a whole, favours compounds with a hit. Of some 83,000 tested, about 20% had one in any assay.
The figure you give is taken to be in %; do not add the unit.

| COMPOUND | STUDY SYSTEM | REPORTED VALUE |
| --- | --- | --- |
| O=[N+]([O-])c1c(S(=O)(=O)O)cc2cc(S(=O)(=O)O)ccc2c1[N+](=O)[O-] | EKVX NSCLC | 101 |
| O=C(Nc1ccc(I)cc1)c1cc([N+](=O)[O-])ccc1O | EKVX NSCLC | 39.7 |
| CC(C)N(Cc1ccc(CN(C(=O)CCl)C(C)C)cc1)C(=O)CCl | EKVX NSCLC | 82.6 |
| COc1ccc(OC)c(/C=C2\Oc3cc(OCCN4CCCC4)ccc3C2=O)c1 | EKVX NSCLC | 95.2 |
| N#CC1=C(N)n2nc(-c3ccncc3)nc2NC1c1cccc2ccccc12 (stereo not given) | EKVX NSCLC | 71.7 |

Quick one: growth for O=C(c1ccccc1)C(Cl)C(Cl)c1ccccc1 (stereo not given) ?
79

Another compound: CC(C)CCC[C@@H](C)[C@H]1CC[C@H]2[C@@H]3CC[C@H]4C/C(=N/O)CC[C@]4(C)[C@H]3CC[C@]12C
101

Another compound: CCNc1nc(N2CC(=O)Nc3cc(OC)ccc32)c2ccccc2n1
12.8

Another compound: CCOC(=O)c1cc(/C(=N\O)c2cc(OC)c(OC)c(OC)c2)n2c(C)cccc12
36.6

Another compound: CN(C)CCCNC(=O)C(c1ccccc1)c1ccccc1
106

###

Tested on: NCI-H322M lung
ASSAY REMARKS: NCI-60 one-dose screen, 48 h (100 = growth as untreated, 0 = no growth, -100 = all killed)
CONDITION CONTEXT: 10 µM unless noted
Compounds without any hit were thinned out: in the full panel of roughly 83,000, 20% have a hit.
Rule for this label: true (1) means growth is less than 80%; false (0) means growth is at least 80%.

// below: answered molecules
| MOLECULE | CATEGORY LABEL |
| --- | --- |
| CCCCCCc1nc2c(c(C)nn2-c2ccccc2)c2c1CCCCC2 | false (0) |
| CCOC(=O)/C=C\C(=O)NC(N)=O | false (0) |

growth strictly < 80% for this molecule? COc1ccc(/C=C2\C(=O)N(C(=O)c3csc(NC(C)=O)n3)N=C2C)cc1
false (0)

###

System: HCC-2998 colon
ASSAY REMARKS: NCI-60 one-dose screen, 48 h
CONDITION CONTEXT: 10 µM unless noted
The panel holds about 83,000 compounds, 20% with a hit somewhere; the sample as a whole holds those more often. Calls of active or inactive are those of the source. Rule for the calls: active = growth percent below 10; inactive = the rest.
Please state which outcome applies, choosing from Yes = active, No = inactive

| COMPOUND | CATEGORY LABEL |
| --- | --- |
| NC(N)=NC(N)=Nc1ccccc1-c1ccccc1 | No |
| CCCCn1c(=O)c(C2CNC(=O)c3ccccc3N2)cc2ccccc21 (stereo not drawn) | No |

Just curious, what result did CCCCCCCCCCC/C=C\C[C@H](O)C/C=C1/C(=O)C=C[C@@H]1C/C=C\CCCC(=O)OC get here?
Yes

Another compound: COc1ncc(-c2ccc3ncnc(Nc4cccc(Cl)c4)c3c2)cc1NS(=O)(=O)CCN1CCOCC1
No

###

Tested on: SF-268 CNS
ASSAY REMARKS: NCI-60 one-dose screen, 48 h (100 = growth as untreated, 0 = no growth, -100 = all killed)
CONDITION CONTEXT: 10 µM unless noted
Compounds without any hit were thinned out: in the full panel of roughly 83,000, 20% have a hit.
Assign class by growth: not lower than 90% means Criterion met; lower than 90% means Criterion not met.

// below: answered compounds
| MOL | CATEGORY LABEL |
| --- | --- |
| O=C(Nc1ccc(F)c(Cl)c1)c1n[nH]c(=O)c2ccccc12 | Criterion met |
| CNC(C)=O | Criterion met |
| C=C1C(=O)O[C@H]2[C@H]1CC/C(Cn1cc(-c3ccc(N)cc3)nn1)=C\CC[C@@]1(C)O[C@@H]21 | Criterion not met |
| COc1ccc(NC(=S)/N=c2\oc3c(OC)cccc3cc2-c2cc3ccccc3[nH]2)cc1 | Criterion not met |
| Clc1nc2ccccc2nc1CI | Criterion met |

Say whether CCNc1nc(N2CC(=O)Nc3cc(OC)ccc32)c2ccccc2n1 shows growth of 90% or more.
Criterion not met

Another compound: O=C(/C=C/CN1CCOCC1)Nc1cc2c(Nc3cccc(Cl)c3F)ncnc2cc1OCCOC(F)F
Criterion not met
